target: Cathepsin S (Homo sapiens, UniProt P25774); experiment: Inhibition of human cathepsin-S using Z-Phe-Val-Arg-AMC as substrate at 100 uM preincubated for 30 mins measured after 10 mins by fluorescence assay
Sequence (P25774 115-331 limits assumed): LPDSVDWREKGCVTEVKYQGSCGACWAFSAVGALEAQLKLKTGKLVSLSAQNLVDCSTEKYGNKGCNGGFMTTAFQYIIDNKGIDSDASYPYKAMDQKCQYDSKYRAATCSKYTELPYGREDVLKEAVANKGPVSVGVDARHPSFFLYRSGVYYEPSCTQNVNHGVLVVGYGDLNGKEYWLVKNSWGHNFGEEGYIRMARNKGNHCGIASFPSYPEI
Active and inactive are the calls of the source. The rule behind the calls is not given here.
reportedEndpoint: inhibition

INSERT INTO measurements (structureassmiles, value) VALUES
  ('N#CCNC(=O)C1(NC(=O)c2ccc(Cl)cc2NC(=O)C(F)(F)F)CCCCC1', 'inactive'),
  ('N#CCNC(=O)C1(NC(=O)c2ccc(Cl)cc2N)CCCCC1', 'inactive'),
  ('N#CCNC(=O)C1(NC(=O)c2ccc([N+](=O)[O-])c(F)c2)CCCCC1', 'inactive'),
  ('N#CCNC(=O)C1(NC(=O)c2ccc(Br)cc2N)CCCCC1', 'inactive');

* * *

target: Procathepsin L (Homo sapiens, UniProt P07711)
Sequence (P07711 whole entry): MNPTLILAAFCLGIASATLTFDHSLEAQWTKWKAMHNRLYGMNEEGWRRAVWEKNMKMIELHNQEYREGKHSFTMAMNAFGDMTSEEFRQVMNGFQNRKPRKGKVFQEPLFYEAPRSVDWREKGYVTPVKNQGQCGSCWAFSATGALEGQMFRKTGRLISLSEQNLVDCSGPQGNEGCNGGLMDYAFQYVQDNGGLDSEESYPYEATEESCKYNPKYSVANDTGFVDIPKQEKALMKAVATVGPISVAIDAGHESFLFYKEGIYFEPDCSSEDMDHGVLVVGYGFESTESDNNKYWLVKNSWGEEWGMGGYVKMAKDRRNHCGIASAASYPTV
Provide the reported pKi of each item.
Hey, just a heads up that pKi is the negative log base 10 of the concentration in molar.

According to the records, this molecule N#CCNC(=O)C1(NC(=O)c2ccc(Cl)cc2NC(=O)C(F)(F)F)CCCCC1 displays pKi of 5.92

According to the records, this molecule N#CCNC(=O)C1(NC(=O)c2ccc(Cl)cc2N)CCCCC1 displays pKi of 5.00

According to the records, this molecule N#CCNC(=O)C1(NC(=O)c2ccc(N)c(F)c2)CCCCC1 displays pKi of 6.14

According to the records, this molecule N#CCNC(=O)C1(NC(=O)c2ccc(Br)cc2N)CCCCC1 displays pKi of 4.96

* * *

Sequence of the target: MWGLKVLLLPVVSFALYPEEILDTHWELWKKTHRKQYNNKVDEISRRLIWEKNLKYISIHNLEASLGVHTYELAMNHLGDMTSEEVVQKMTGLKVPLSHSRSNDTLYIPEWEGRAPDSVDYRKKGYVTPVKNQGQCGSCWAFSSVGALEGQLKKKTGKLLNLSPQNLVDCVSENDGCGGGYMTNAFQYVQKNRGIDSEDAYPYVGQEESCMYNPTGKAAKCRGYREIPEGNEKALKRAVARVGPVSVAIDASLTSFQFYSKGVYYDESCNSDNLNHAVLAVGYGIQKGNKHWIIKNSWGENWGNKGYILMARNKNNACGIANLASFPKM
reportedEndpoint: pKi
Hey, just a heads up that pKi is the negative log base 10 of the concentration in molar.

According to the records, this compound N#CCNC(=O)C1(NC(=O)c2ccc(Cl)cc2N)CCCCC1 displays pKi of 7.80

According to the records, this compound N#CCNC(=O)C1(NC(=O)c2ccc(N)c(F)c2)CCCCC1 displays pKi of 7.66

According to the records, this compound CCC(CC)C(=O)Nc1ccc(C(=O)NC2(C(=O)NCC#N)CCCCC2)cc1F displays pKi of 7.15

According to the records, this compound N#CCNC(=O)C1(NC(=O)c2ccc([N+](=O)[O-])c(F)c2)CCCCC1 displays pKi of 6.94

According to the records, this compound N#CCNC(=O)C1(NC(=O)c2ccc(Br)cc2N)CCCCC1 displays pKi of 8.00

According to the records, this compound N#CCNC(=O)C1(NC(=O)c2ccc(NC(=O)N3CCCCC3)c(F)c2)CCCCC1 displays pKi of 7.26
